- SYSTEM TESTED: T1, recombinant rat MASP1 active protease (amino acids 302-704, C-terminal His Tag) (rat, UniProt Q8CHN8 302-704)
- T1 sequence: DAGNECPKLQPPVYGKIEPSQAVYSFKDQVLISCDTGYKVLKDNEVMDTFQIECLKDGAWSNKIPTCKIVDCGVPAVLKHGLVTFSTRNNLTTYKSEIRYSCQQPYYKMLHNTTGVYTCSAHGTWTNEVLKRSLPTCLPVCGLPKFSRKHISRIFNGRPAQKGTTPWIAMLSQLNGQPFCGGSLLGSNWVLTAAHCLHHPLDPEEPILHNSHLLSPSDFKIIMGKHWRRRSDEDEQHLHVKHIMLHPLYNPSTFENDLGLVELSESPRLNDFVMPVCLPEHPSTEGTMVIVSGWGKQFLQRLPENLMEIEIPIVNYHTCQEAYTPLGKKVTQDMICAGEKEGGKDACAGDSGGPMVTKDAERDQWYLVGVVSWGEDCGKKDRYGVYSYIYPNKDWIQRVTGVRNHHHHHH
- ASSAY TEXT: cell-based or functional assay
Bridge positions count the residues as written; N and C are the ends. Square brackets hold non-standard residues; d marks the D form. Ends that are not written are not given here. * marks the point of attachment. Benzoyl(3-COOH) = O=C(O)c1cccc(C(=O)*)c1; Oic = O=C(O)[C@@H]1C[C@@H]2CCCC[C@@H]2N1; PEG8 = NCCOCCOCCOCCOCCOCCOCCOCCOCCC(=O)O; Pen = CC(C)(S)[C@H](N)C(=O)O; Sar = CNCC(=O)O
QUANTITY NAME: rat MASP1 IC50 (µM)

BINDER	OBSERVED RESULT
{Benzoyl(3-COOH)}-GICSRSLP[Oic]I[Pen]IPD-OH (disulfide 3-11; SMILES CC[C@H](C)[C@H](NC(=O)CNC(=O)c1cccc(C(=O)O)c1)C(=O)N[C@H]1CSSC(C)(C)[C@@H](C(=O)N[C@H](C(=O)N2CCC[C@H]2C(=O)N[C@@H](CC(=O)O)C(=O)O)[C@@H](C)CC)NC(=O)[C@H]([C@@H](C)CC)NC(=O)[C@@H]2C[C@@H]3CCCC[C@@H]3N2C(=O)[C@@H]2CCCN2C(=O)[C@H](CC(C)C)NC(=O)[C@H](CO)NC(=O)[C@H](CCCNC(=N)N)NC(=O)[C@H](CO)NC1=O) [Example 491: (3-Carboxybenzoic acid)-GIC+SRSLP-(Oic)-I-(Pen)+IPD-OH]	0.02
[Sar]ICSRSLP[Oic]I[Pen]IP[PEG8]-NH2 (disulfide 3-11; N-terminus assumed; SMILES CC[C@H](C)[C@H](NC(=O)CNC)C(=O)N[C@H]1CSSC(C)(C)[C@@H](C(=O)N[C@H](C(=O)N2CCC[C@H]2C(=O)NCCOCCOCCOCCOCCOCCOCCOCCOCCC(N)=O)[C@@H](C)CC)NC(=O)[C@H]([C@@H](C)CC)NC(=O)[C@@H]2C[C@@H]3CCCC[C@@H]3N2C(=O)[C@@H]2CCCN2C(=O)[C@H](CC(C)C)NC(=O)[C@H](CO)NC(=O)[C@H](CCCNC(=N)N)NC(=O)[C@H](CO)NC1=O) [Example 168: ((N-Me)G)-IC+SRSLP-(Oic)-I-(Pen)+IP-(PEG8(28 atoms))-NH2]	0.14
